Source of measurements: paper PMC12439480

# METHOD_DESCRIPTION: in vivo
# Design: species or system BALB/c nude mice
# RUN_CONDITIONS: female, BALB/c nude, mouse, iv, 3.7 MBq, total radioactivity, Tumor-to-Bladder ratio (T/B)
Numbered stars: 1 amine (or outer) side, 2 acyl side, 3 side chain; on linkers, the order of the positions; unused ones are H or OH. Square brackets hold non-standard residues; d marks the D form. Peptide text beside a SMILES is read from it. * marks the point of attachment. DOTA = O=C(O)CN1CCN(CC(=O)O)CCN(CC(=O)*)CCN(CC(=O)O)CC1; d(γGlu) = O=C(O)[C@@H](CCC(=O)[*:2])N[*:1]; 1Nal = N[C@@H](Cc1cccc2ccccc12)C(=O)O; NMeNle = CCCC[C@H](NC)C(=O)O; PEG4 = NCCOCCOCCOCCOCCC(=O)O
METRIC_NAME: tissue to tissue ratio at 0.5 h
Give the value as a plain number.

According to the records, this molecule CCCC[C@@H](C(=O)N[C@@H](CC(=O)O)C(=O)N[C@@H](Cc1cccc2ccccc12)C(N)=O)N(C)C(=O)[C@H](Cc1c[nH]c2ccccc12)NC(=O)CCOCCOCCOCCOCCNC(=O)CC[C@@H](NC(=O)CN1CCN(CC(=O)O)CCN(CC(=O)O)CCN(CC(=O)O)CC1)C(=O)O [[68Ga]Ga-DOTA-CCK-66, metal not drawn, reference compound] ({DOTA-d(γGlu)-PEG4}-W[NMeNle]D[1Nal]-NH2) displays tissue to tissue ratio at 0.5 h of 1.95

* * *

# METHOD_DESCRIPTION: in vivo
# Design: species or system BALB/c nude mice
# RUN_CONDITIONS: female, BALB/c nude, mouse, iv, 3.7 MBq, total radioactivity, Tumor-to-Spleen ratio (T/B)
Numbered stars: 1 amine (or outer) side, 2 acyl side, 3 side chain; on linkers, the order of the positions; unused ones are H or OH. Square brackets hold non-standard residues; d marks the D form. Peptide text beside a SMILES is read from it. * marks the point of attachment. DOTA = O=C(O)CN1CCN(CC(=O)O)CCN(CC(=O)*)CCN(CC(=O)O)CC1; d(γGlu) = O=C(O)[C@@H](CCC(=O)[*:2])N[*:1]; 1Nal = N[C@@H](Cc1cccc2ccccc12)C(=O)O; NMeNle = CCCC[C@H](NC)C(=O)O; PEG4 = NCCOCCOCCOCCOCCC(=O)O
METRIC_NAME: tissue to tissue ratio at 1 h

According to the records, this molecule CCCC[C@@H](C(=O)N[C@@H](CC(=O)O)C(=O)N[C@@H](Cc1cccc2ccccc12)C(N)=O)N(C)C(=O)[C@H](Cc1c[nH]c2ccccc12)NC(=O)CCOCCOCCOCCOCCNC(=O)CC[C@@H](NC(=O)CN1CCN(CC(=O)O)CCN(CC(=O)O)CCN(CC(=O)O)CC1)C(=O)O [[68Ga]Ga-DOTA-CCK-66, metal not drawn, reference compound] ({DOTA-d(γGlu)-PEG4}-W[NMeNle]D[1Nal]-NH2) displays tissue to tissue ratio at 1 h of 7

* * *

# METHOD_DESCRIPTION: in vivo
# Set-up: species or system BALB/c nude mice
# RUN_CONDITIONS: female, BALB/c nude, mouse, iv, 3.7 MBq, total radioactivity, Tumor-to-Liver ratio (T/B)
Numbered stars: 1 amine (or outer) side, 2 acyl side, 3 side chain; on linkers, the order of the positions; unused ones are H or OH. Square brackets hold non-standard residues; d marks the D form. Peptide text beside a SMILES is read from it. * marks the point of attachment. DOTA = O=C(O)CN1CCN(CC(=O)O)CCN(CC(=O)*)CCN(CC(=O)O)CC1; d(γGlu) = O=C(O)[C@@H](CCC(=O)[*:2])N[*:1]; 1Nal = N[C@@H](Cc1cccc2ccccc12)C(=O)O; NMeNle = CCCC[C@H](NC)C(=O)O; PEG4 = NCCOCCOCCOCCOCCC(=O)O
METRIC_NAME: tissue to tissue ratio at 2 h
Give the value as a plain number.

According to the records, this compound CCCC[C@@H](C(=O)N[C@@H](CC(=O)O)C(=O)N[C@@H](Cc1cccc2ccccc12)C(N)=O)N(C)C(=O)[C@H](Cc1c[nH]c2ccccc12)NC(=O)CCOCCOCCOCCOCCNC(=O)CC[C@@H](NC(=O)CN1CCN(CC(=O)O)CCN(CC(=O)O)CCN(CC(=O)O)CC1)C(=O)O [[68Ga]Ga-DOTA-CCK-66, metal not drawn, reference compound] ({DOTA-d(γGlu)-PEG4}-W[NMeNle]D[1Nal]-NH2) displays tissue to tissue ratio at 2 h of 13.2

* * *

# METHOD_DESCRIPTION: in vivo
# Design: species or system BALB/c nude mice
# RUN_CONDITIONS: female, BALB/c nude, mouse, iv, 3.7 MBq, total radioactivity, Tumor-to-Muscle ratio (T/M)
Numbered stars: 1 amine (or outer) side, 2 acyl side, 3 side chain; on linkers, the order of the positions; unused ones are H or OH. Square brackets hold non-standard residues; d marks the D form. Peptide text beside a SMILES is read from it. * marks the point of attachment. DOTA = O=C(O)CN1CCN(CC(=O)O)CCN(CC(=O)*)CCN(CC(=O)O)CC1; d(γGlu) = O=C(O)[C@@H](CCC(=O)[*:2])N[*:1]; 1Nal = N[C@@H](Cc1cccc2ccccc12)C(=O)O; NMeNle = CCCC[C@H](NC)C(=O)O; PEG4 = NCCOCCOCCOCCOCCC(=O)O
METRIC_NAME: tissue to tissue ratio at 2 h

According to the records, this molecule CCCC[C@@H](C(=O)N[C@@H](CC(=O)O)C(=O)N[C@@H](Cc1cccc2ccccc12)C(N)=O)N(C)C(=O)[C@H](Cc1c[nH]c2ccccc12)NC(=O)CCOCCOCCOCCOCCNC(=O)CC[C@@H](NC(=O)CN1CCN(CC(=O)O)CCN(CC(=O)O)CCN(CC(=O)O)CC1)C(=O)O [[68Ga]Ga-DOTA-CCK-66, metal not drawn, reference compound] ({DOTA-d(γGlu)-PEG4}-W[NMeNle]D[1Nal]-NH2) displays tissue to tissue ratio at 2 h of 15.2

* * *

# METHOD_DESCRIPTION: in vivo
# Parameters: species or system BALB/c nude mice
# RUN_CONDITIONS: female, BALB/c nude, mouse, iv, 3.7 MBq, total radioactivity, Tumor-to-Large intestine ratio (T/B)
Numbered stars: 1 amine (or outer) side, 2 acyl side, 3 side chain; on linkers, the order of the positions; unused ones are H or OH. Square brackets hold non-standard residues; d marks the D form. Peptide text beside a SMILES is read from it. * marks the point of attachment. DOTA = O=C(O)CN1CCN(CC(=O)O)CCN(CC(=O)*)CCN(CC(=O)O)CC1; d(γGlu) = O=C(O)[C@@H](CCC(=O)[*:2])N[*:1]; 1Nal = N[C@@H](Cc1cccc2ccccc12)C(=O)O; NMeNle = CCCC[C@H](NC)C(=O)O; PEG4 = NCCOCCOCCOCCOCCC(=O)O
METRIC_NAME: tissue to tissue ratio at 0.5 h
Give the value as a plain number.

According to the records, this molecule CCCC[C@@H](C(=O)N[C@@H](CC(=O)O)C(=O)N[C@@H](Cc1cccc2ccccc12)C(N)=O)N(C)C(=O)[C@H](Cc1c[nH]c2ccccc12)NC(=O)CCOCCOCCOCCOCCNC(=O)CC[C@@H](NC(=O)CN1CCN(CC(=O)O)CCN(CC(=O)O)CCN(CC(=O)O)CC1)C(=O)O [[68Ga]Ga-DOTA-CCK-66, metal not drawn, reference compound] ({DOTA-d(γGlu)-PEG4}-W[NMeNle]D[1Nal]-NH2) displays tissue to tissue ratio at 0.5 h of 5.91

* * *

# METHOD_DESCRIPTION: in vivo
# Design: species or system BALB/c nude mice
# RUN_CONDITIONS: mouse, Small intestine uptake
Numbered stars: 1 amine (or outer) side, 2 acyl side, 3 side chain; on linkers, the order of the positions; unused ones are H or OH. Square brackets hold non-standard residues; d marks the D form. Peptide text beside a SMILES is read from it. * marks the point of attachment. DOTA = O=C(O)CN1CCN(CC(=O)O)CCN(CC(=O)*)CCN(CC(=O)O)CC1; d(γGlu) = O=C(O)[C@@H](CCC(=O)[*:2])N[*:1]; 1Nal = N[C@@H](Cc1cccc2ccccc12)C(=O)O; NMeNle = CCCC[C@H](NC)C(=O)O; PEG4 = NCCOCCOCCOCCOCCC(=O)O
METRIC_NAME: tissue uptake at 0.5 h
Answer by giving the amount and then stating its unit.

According to the records, this compound CCCC[C@@H](C(=O)N[C@@H](CC(=O)O)C(=O)N[C@@H](Cc1cccc2ccccc12)C(N)=O)N(C)C(=O)[C@H](Cc1c[nH]c2ccccc12)NC(=O)CCOCCOCCOCCOCCNC(=O)CC[C@@H](NC(=O)CN1CCN(CC(=O)O)CCN(CC(=O)O)CCN(CC(=O)O)CC1)C(=O)O [[68Ga]Ga-DOTA-CCK-66, metal not drawn, reference compound] ({DOTA-d(γGlu)-PEG4}-W[NMeNle]D[1Nal]-NH2) displays tissue uptake at 0.5 h of 0.57 %ID/g
